Catalogue of IC50 values
target: human PD-1 / PD-L1-Ig binding on Jurkat cell line over-expressing human PD-1 (Jurkat-PD-1) (Homo sapiens, UniProt Q15116)
Construct: expressed in transfected cells; host or cells: Jurkat
Sequence (Q15116 25-288): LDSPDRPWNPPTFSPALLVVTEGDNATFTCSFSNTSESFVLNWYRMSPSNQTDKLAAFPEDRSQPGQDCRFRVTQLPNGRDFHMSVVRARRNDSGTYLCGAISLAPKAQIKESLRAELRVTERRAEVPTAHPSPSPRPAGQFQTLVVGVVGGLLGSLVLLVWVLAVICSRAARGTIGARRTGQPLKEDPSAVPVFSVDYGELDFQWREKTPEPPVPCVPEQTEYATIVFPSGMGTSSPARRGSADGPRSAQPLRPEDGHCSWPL
procedure-details: Jurkat-PD-1 Cell Binding High-Content Screening Assay (CBA)
Format: cell-based
condition-summary: Jurkat-PD-1 cells, PE-labeled PD-L1-Ig 20 nM final; read-out: Jurkat HPD1_PDL1 IC50
Where a SMILES comes first, the peptide text is derived from it. Bridges are numbered along the chain shown (N, C = ends). [ ]: non-standard residue; d: D form. Bip = N[C@@H](Cc1ccc(-c2ccccc2)cc1)C(=O)O; Dab = NCC[C@H](N)C(=O)O; Dap = NC[C@H](N)C(=O)O
# output: bare number, implied unit nM

compound	IC50, nM
CC(C)C[C@@H]1NC(=O)[C@H](Cc2c[nH]c3ccccc23)NC(=O)[C@H](CC(=O)O)NC(=O)[C@H](Cc2ccc(O)cc2)NC(=O)[C@H](Cc2ccccc2)NC(=O)CSC[C@@H](C(=O)NCC(N)=O)NC(=O)[C@H](CO)NC(=O)[C@H](C(C)C)NC(=O)[C@H](CC(C)C)NC(=O)[C@H](CCN)NC(=O)[C@@H](C)NC(=O)[C@H](CN)NC(=O)[C@H](C(C)C)NC(=O)[C@H](Cc2ccc(-c3ccccc3)cc2)NC1=O [Compound 1098] ({CH2CO}-FYDWL[Bip]V[Dap][dA][Dab]LVSCG-NH2; thioether N-14)	115

API: the following record is the query input.
Give IC50 for the following compound: CCC(C)[C@@H]1NC(=O)[C@H](Cc2ccc(-c3ccccc3)cc2)NC(=O)[C@H](C(C)C)NC(=O)[C@H](Cc2cc(OC)ccc2F)NC(=O)[C@H](CC(=O)O)NC(=O)[C@H](Cc2ccc(OCC(=O)O)cc2)NC(=O)[C@H](CN)NC(=O)CSC[C@@H](C(=O)N[C@@H](C)C(N)=O)NC(=O)[C@H]([C@@H](C)O)NC(=O)[C@H](C(C)C)NC(=O)[C@H](CC2CCCCC2)NC(=O)[C@H](CCN)NC(=O)[C@@H](CC(C)C)NC(=O)[C@H](CCCN)NC1=O (some centres unmarked)
13.8

These measurements were taken from patent US20250163104A1.
